PARAMETER: IC50

Query for PI3Kδ (Homo sapiens (Human)): what IC50 does the record show for CCC(=O)N1CC(N2Cc3c(C#N)c(Cl)cc(C(C)n4nc(C)c5c(N)ncnc54)c3OC(C)C2)C1 (stereo not shown) ? ≤ 100 nM

All values here come from patent US10259818B2.
